# measurement-target: T1, human EphA3 (Homo sapiens, UniProt P29320)
# T1 construct: a protein of the extracellular region of each human Eph receptor fused with the SEAP protein and the His tag; made in house; host or cells: Expi293F cells (culture supernatant)
# T1 sequence (P29320 21-541 limits assumed): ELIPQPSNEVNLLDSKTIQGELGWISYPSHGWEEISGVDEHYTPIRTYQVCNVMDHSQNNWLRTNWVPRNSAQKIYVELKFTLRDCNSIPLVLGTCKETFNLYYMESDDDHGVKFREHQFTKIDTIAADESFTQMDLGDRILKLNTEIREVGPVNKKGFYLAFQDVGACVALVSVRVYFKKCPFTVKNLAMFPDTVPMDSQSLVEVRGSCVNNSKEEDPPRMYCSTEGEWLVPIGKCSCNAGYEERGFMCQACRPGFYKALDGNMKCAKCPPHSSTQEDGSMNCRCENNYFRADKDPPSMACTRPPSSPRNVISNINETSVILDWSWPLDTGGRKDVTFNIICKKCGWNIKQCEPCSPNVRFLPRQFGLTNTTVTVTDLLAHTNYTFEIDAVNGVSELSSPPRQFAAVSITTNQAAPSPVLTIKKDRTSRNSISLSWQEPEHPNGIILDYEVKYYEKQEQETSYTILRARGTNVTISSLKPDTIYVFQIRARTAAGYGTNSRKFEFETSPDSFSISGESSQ
# measurement-protocol: Selectivity ELISA of humanized antibodies for human Eph receptor
# Format: binding
# condition-context: coated protein 1 nM
readout-name: hEphA3-SEAP-: absorbance at 450 nm, percentage with respect to hEphA4-SEAP-His as 100% (%)
Numeric answer only, unit % assumed.

155 (antibody, V domains shown, synthetic humanized antibody heavy chain variable region sequence; synthetic humanized antibody light chain variable region sequence) VH: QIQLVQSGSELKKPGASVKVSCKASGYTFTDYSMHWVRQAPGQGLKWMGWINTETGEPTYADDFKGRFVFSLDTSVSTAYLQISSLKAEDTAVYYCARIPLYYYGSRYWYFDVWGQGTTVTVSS VL: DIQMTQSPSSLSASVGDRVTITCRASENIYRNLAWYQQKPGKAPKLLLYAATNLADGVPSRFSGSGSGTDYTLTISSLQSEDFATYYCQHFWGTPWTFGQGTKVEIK; 5.6
152 (antibody, V domains shown, synthetic humanized antibody heavy chain variable region sequence; synthetic humanized antibody light chain variable region sequence) VH: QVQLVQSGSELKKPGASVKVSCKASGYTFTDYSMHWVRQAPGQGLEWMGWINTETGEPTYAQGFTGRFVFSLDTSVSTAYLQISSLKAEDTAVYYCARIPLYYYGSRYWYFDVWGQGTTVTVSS VL: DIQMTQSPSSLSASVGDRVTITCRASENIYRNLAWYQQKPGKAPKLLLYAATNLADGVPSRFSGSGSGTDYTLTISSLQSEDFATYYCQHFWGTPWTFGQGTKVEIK; 5.8
158 (antibody, V domains shown, synthetic humanized antibody heavy chain variable region sequence; synthetic humanized antibody light chain variable region sequence) VH: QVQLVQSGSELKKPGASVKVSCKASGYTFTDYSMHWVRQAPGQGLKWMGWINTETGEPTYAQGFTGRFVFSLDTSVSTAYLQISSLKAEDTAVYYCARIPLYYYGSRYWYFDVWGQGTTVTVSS VL: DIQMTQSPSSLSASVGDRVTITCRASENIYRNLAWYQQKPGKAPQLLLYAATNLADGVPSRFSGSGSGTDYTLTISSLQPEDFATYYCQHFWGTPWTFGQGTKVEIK; 6.5

IN: Given 132 (antibody, V domains shown, synthetic humanized antibody heavy chain variable region sequence; synthetic humanized antibody light chain variable region sequence) VH: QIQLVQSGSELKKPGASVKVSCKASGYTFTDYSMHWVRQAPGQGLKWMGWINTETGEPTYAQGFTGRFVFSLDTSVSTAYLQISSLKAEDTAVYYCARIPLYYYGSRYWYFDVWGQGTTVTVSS VL: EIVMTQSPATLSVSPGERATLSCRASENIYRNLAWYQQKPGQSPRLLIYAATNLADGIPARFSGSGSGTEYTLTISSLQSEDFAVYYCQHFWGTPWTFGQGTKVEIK , respond with its hEphA3-SEAP-: absorbance at 450 nm, percentage with respect to hEphA4-SEAP-His as 100%.
OUT: 4.8

IN: Given 159 (antibody, V domains shown, synthetic humanized antibody heavy chain variable region sequence; synthetic humanized antibody light chain variable region sequence) VH: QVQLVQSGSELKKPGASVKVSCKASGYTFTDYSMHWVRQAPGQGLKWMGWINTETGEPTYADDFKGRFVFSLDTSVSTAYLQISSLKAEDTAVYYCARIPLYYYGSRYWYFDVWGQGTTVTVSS VL: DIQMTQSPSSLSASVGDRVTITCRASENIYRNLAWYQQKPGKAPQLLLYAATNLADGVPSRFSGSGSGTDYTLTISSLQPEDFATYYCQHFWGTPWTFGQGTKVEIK , respond with its hEphA3-SEAP-: absorbance at 450 nm, percentage with respect to hEphA4-SEAP-His as 100%.
OUT: 5.4

IN: Given 153 (antibody, V domains shown, synthetic humanized antibody heavy chain variable region sequence; synthetic humanized antibody light chain variable region sequence) VH: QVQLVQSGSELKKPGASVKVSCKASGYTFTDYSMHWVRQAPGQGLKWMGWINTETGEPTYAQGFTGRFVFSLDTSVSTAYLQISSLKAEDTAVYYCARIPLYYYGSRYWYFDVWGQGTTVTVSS VL: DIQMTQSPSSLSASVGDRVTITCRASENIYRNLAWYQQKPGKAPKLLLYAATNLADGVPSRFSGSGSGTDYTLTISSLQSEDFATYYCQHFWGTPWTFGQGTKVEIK , respond with its hEphA3-SEAP-: absorbance at 450 nm, percentage with respect to hEphA4-SEAP-His as 100%.
OUT: 6.1

IN: Given 141 (antibody, V domains shown, synthetic humanized antibody heavy chain variable region sequence; synthetic humanized antibody light chain variable region sequence) VH: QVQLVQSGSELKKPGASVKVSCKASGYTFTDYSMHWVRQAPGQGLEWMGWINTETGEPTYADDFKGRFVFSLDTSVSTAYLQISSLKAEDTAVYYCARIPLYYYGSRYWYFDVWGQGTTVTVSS VL: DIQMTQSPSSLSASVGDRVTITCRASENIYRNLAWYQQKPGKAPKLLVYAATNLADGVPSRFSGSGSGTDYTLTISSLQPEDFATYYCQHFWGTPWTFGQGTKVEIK , respond with its hEphA3-SEAP-: absorbance at 450 nm, percentage with respect to hEphA4-SEAP-His as 100%.
OUT: 5.3

IN: Given 145 (antibody, V domains shown, synthetic humanized antibody heavy chain variable region sequence; synthetic humanized antibody light chain variable region sequence) VH: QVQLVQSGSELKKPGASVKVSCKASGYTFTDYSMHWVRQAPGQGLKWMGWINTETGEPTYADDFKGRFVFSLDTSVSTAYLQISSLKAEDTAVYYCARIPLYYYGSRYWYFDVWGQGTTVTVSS VL: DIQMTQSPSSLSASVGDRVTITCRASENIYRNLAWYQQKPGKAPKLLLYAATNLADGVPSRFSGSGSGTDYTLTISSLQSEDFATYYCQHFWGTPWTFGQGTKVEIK , respond with its hEphA3-SEAP-: absorbance at 450 nm, percentage with respect to hEphA4-SEAP-His as 100%.
OUT: 6.6

Values compiled from patent US10428140B2.
